- Experimental System: Son of sevenless homolog 1 (Homo sapiens) (UniProt Q07889)
- Sequence (Q07889 whole entry): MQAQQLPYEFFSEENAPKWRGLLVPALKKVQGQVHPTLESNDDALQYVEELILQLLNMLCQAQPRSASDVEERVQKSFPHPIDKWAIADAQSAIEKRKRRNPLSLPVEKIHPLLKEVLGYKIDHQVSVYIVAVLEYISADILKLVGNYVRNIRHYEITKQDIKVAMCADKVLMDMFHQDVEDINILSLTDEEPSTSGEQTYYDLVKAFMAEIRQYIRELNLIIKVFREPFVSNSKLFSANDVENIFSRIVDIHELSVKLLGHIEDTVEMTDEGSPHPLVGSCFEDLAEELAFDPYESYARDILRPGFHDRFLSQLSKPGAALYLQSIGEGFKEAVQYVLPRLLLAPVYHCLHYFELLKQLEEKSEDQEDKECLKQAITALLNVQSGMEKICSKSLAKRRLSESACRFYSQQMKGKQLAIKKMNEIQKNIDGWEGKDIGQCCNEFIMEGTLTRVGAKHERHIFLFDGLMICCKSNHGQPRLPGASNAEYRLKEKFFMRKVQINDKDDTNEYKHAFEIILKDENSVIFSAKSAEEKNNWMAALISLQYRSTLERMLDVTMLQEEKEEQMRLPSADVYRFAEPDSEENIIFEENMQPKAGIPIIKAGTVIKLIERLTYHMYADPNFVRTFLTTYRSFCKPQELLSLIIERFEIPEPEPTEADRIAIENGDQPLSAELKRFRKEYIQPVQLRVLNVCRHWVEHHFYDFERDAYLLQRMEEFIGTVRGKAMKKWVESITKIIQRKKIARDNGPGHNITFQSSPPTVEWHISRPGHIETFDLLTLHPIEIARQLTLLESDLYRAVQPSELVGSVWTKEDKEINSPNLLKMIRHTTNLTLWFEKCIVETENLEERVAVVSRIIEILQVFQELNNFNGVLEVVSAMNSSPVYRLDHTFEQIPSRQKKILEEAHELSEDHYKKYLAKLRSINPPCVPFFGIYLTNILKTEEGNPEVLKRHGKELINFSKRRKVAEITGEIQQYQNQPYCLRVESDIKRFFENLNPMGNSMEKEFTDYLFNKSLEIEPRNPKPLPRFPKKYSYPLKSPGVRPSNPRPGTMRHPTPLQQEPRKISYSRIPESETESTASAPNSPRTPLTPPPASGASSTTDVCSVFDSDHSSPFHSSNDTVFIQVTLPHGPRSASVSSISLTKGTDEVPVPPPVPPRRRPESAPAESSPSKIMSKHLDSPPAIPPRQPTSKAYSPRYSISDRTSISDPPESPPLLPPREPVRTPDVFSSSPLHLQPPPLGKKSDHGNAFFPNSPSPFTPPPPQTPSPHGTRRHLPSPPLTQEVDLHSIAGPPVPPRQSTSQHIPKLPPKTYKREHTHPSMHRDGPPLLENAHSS
- Run Description: Inhibition of human recombinant SOS1 at 10 uM relative to control
Active and inactive are the calls of the source. No cut-off for these calls is given here.
Measure Name: inhibition

Known inhibition results, listed for orientation:
- Cpd Smiles: "c1ccc2c(Nc3ccc4c(c3)OCO4)ncnc2c1"
  Experimental System: "Son of sevenless homolog 1 (Homo sapiens) (UniProt Q07889)"
  Measure Name: "inhibition"
  Endpoint Value: "inactive"
- Cpd Smiles: "COc1cc2ncnc(NCc3ccc4c(c3)OCO4)c2cc1OC"
  Experimental System: "Son of sevenless homolog 1 (Homo sapiens) (UniProt Q07889)"
  Measure Name: "inhibition"
  Endpoint Value: "41%"
- Cpd Smiles: "Clc1cccc(Nc2ncnc3sc4c(c23)CCCC4)c1"
  Experimental System: "Son of sevenless homolog 1 (Homo sapiens) (UniProt Q07889)"
  Measure Name: "inhibition"
  Endpoint Value: "inactive"
- Cpd Smiles: "Clc1ccc(CNc2ncnc3ccccc23)cc1"
  Experimental System: "Son of sevenless homolog 1 (Homo sapiens) (UniProt Q07889)"
  Measure Name: "inhibition"
  Endpoint Value: "47%"
- Cpd Smiles: "COc1cc2ncnc(NCc3ccccc3C(F)(F)F)c2cc1OC"
  Experimental System: "Son of sevenless homolog 1 (Homo sapiens) (UniProt Q07889)"
  Measure Name: "inhibition"
  Endpoint Value: "43%"

Lookup: Param item = CCc1cc2c(Nc3ccc(Cl)cc3)ncnc2s1 ; retrieve measured inhibition.
Found: inactive

Lookup: Param item = COc1cc2ncnc(NCc3cccc(Cl)c3)c2cc1OC ; retrieve measured inhibition.
Found: 56%
